Target: isolated kinase domain of the human FLT3 receptor (a.a. 571-993) (Homo sapiens)
Construct: human FLT3 receptor (a.a. 571-993)
Sequence (P36888 571-993): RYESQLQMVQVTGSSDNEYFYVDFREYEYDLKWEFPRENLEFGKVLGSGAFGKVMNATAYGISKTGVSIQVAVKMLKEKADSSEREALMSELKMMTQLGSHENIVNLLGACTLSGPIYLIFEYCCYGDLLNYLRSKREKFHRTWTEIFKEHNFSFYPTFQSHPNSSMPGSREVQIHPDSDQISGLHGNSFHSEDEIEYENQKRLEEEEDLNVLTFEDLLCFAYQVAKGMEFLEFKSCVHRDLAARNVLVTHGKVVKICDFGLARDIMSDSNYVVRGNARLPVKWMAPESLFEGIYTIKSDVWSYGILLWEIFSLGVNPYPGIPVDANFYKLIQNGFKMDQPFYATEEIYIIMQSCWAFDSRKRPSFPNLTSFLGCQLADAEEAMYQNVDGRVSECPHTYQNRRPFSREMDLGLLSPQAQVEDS
Test: FLT3 fluorescence polarization kinase assay
Conditions: uncertainty ±10%
Recorded pIC50, one value per entry.
For clarity, pIC50 is expressed as the negative log10 of concentration in mol/L.

Below, each entry is followed by its recorded pIC50 result.
Compound	Measurement Target	Result Value
Nc1ncnc(N2CCN(C(=O)Nc3ccc(OC4CCC4)nc3)CC2)c1/C=N/OCCN1CCOCC1 [Compound 30]	isolated kinase domain of the human FLT3 receptor (a.a. 571-993) (Homo sapiens)	5.76
CS(=O)(=O)NCCO/N=C/c1c(N)ncnc1N1CCN(C(=O)Nc2ccc(OC3CCC3)nc2)CC1 [Compound 33]	isolated kinase domain of the human FLT3 receptor (a.a. 571-993) (Homo sapiens)	5.94
CC(C)Oc1ccc(NC(=O)N2CCN(c3ncnc(N)c3/C=N/OCCN)CC2)cc1 [Compound 25]	isolated kinase domain of the human FLT3 receptor (a.a. 571-993) (Homo sapiens)	5.94
NCCO/N=C/c1c(N)ncnc1N1CCN(C(=O)Nc2ccc(N3CCOCC3)cc2)CC1 [Compound 32]	isolated kinase domain of the human FLT3 receptor (a.a. 571-993) (Homo sapiens)	5.29
NCCO/N=C/c1c(N)ncnc1N1CCN(C(=O)Nc2ccc(N3CCCC3)cc2)CC1 [Compound 34]	isolated kinase domain of the human FLT3 receptor (a.a. 571-993) (Homo sapiens)	5.82

Prompt: // lookup pIC50 for NCCO/N=C/c1c(N)ncnc1N1CCN(C(=O)Nc2ccc(OC3CCC3)nc2)CC1 [Compound 31]
Completion: 5.84

Prompt: Request the reported pIC50 associated with CO/N=C/c1c(N)ncnc1N1CCCN(C(=O)Nc2ccc(OC(C)C)cc2)CC1 [Compound 24]
Completion: 6.91

Taken from patent US20060281755A1.
